System: ApoB secretion, HepG2 cells
ASSAY_METHOD_TEXT: Quantification of the secretion of ApoB (HepG2 cells, immunoprecipitation, scintillation counting)
Format: cell-based
CONDITION_DETAILS: Homo sapiens, HepG2, 24 h, 24 hours of incubation
ENDPOINT_LABEL: pIC50
Lab note: report pIC50 as minus log10 of the concentration in molar units, number only.

- MOLECULE: "O=C(Nc1ccc(N2CCN(CC(C(=O)NCC(F)(F)F)c3ccccc3)CC2)cc1)c1ccccc1-c1ccc(C(F)(F)F)cc1 (stereo not shown)"
  TARGET_OF_ASSAY: "ApoB secretion, HepG2 cells"
  ENDPOINT_LABEL: "pIC50"
  ENDPOINT_RESULT: 7.10
- MOLECULE: "COC(=O)C(c1ccccc1)N1CCN(c2ccc(NC(=O)c3ccc(Cl)cc3-c3ccc(C(F)(F)F)cc3)cc2)CC1 (stereo not shown)"
  TARGET_OF_ASSAY: "ApoB secretion, HepG2 cells"
  ENDPOINT_LABEL: "pIC50"
  ENDPOINT_RESULT: 6.80
- MOLECULE: "CC(C)NC(=O)C(c1ccccc1)C1CCN(c2ccc(NC(=O)c3cccc4c3-c3ccccc3C4)cc2)CC1 (stereo not shown)"
  TARGET_OF_ASSAY: "ApoB secretion, HepG2 cells"
  ENDPOINT_LABEL: "pIC50"
  ENDPOINT_RESULT: 6.61
- MOLECULE: "CCCCCNC(=O)C(CN1CCN(c2ccc(NC(=O)c3ccccc3-c3ccc(C(F)(F)F)cc3)cc2)CC1)c1ccccc1 (stereo not shown)"
  TARGET_OF_ASSAY: "ApoB secretion, HepG2 cells"
  ENDPOINT_LABEL: "pIC50"
  ENDPOINT_RESULT: 6.62

Input line: Reported pIC50 for CC(C)NC(=O)C(c1ccccc1)C1CCN(c2ccc(NC(=O)c3ccccc3CSc3ccccc3)cc2)CC1 (stereo not shown) : what is it?
Output line: 6.07

Input line: # lookup: pIC50 of CC(C)OC(=O)C(c1ccccc1)N1CCC(c2ccc(NC(=O)c3ccccc3-c3ccc(C(F)(F)F)cc3)cc2)CC1 (stereo not shown)
Output line: 6.43
